Ref: ChEMBL document CHEMBL1201862

- System: KM12
- protocol_summary: NCI tumour cell line growth inhibition, 48 h
Calls of active or inactive are those of the source. No stated cut-off is given here; in the data, active = GI50 up to about 1.1 µM and inactive = higher.
Kindly supply the reported GI50 values for the records listed here.

Briefly, GI50 measured for Cc1ccc(S(=O)(=O)OC2C3OC(C)(C)OC3OC2C(c2cc(O)c3c(c2O)C(=O)c2ccccc2C3=O)c2cc(O)c3c(c2O)C(=O)c2ccccc2C3=O)cc1 (stereo not drawn) : > 10 µM (inactive)

Briefly, GI50 measured for O=C(CSc1nc2ccc(I)cc2c(=O)n1Cc1ccccc1)NN1C(=O)CSC1c1ccccc1 (stereo not drawn) : 22.5 µM (inactive)

Briefly, GI50 measured for CC1CNC(c2ccc3c(c2)Cc2cc(C4=NC(C)CN4)ccc2-3)=N1 (stereo not drawn) : 20.3 µM (inactive)
